Measured values drawn from PubChem BioAssay AID1259418 for this set.

Could you please report measured max activity for the items listed next?
Assay: inhibitors of Toxoplasma growth in IFN-γ-primed HeLa – cell-based, ME49Luc, luciferase, 72 h, dose response (AID 1259418)
Conditions: T. gondii ME49Luc in IFN-y HeLa, active compounds read low, -100% = high-dose IFN-γ control wells; at 19.5 µM unless noted
In all, about 3,400 compounds went through this assay and about 840 (25%) were called active. Roughly 11% stayed inconclusive and do not appear here. Not all results are given here. Potency and affinity values are given separately.

Here is how some molecules turned out for max activity.
{"columns": ["Molecule", "Observed Result"],
 "data": [
  ["COc1cccc(NC(=O)Nc2ccc(-c3nc(-c4ccc(C)cc4)co3)cc2)c1", "21.2% [at 0.16 µM] (inactive)"],
  ["COc1cccc(NC(=O)Nc2ccc(-c3nc(-c4cc(C)ccc4C)co3)cc2)c1", "10.1% [at 0.16 µM] (inactive)"],
  ["Cc1ccc(-c2coc(-c3ccc(NC(=O)c4ccc(Br)o4)cc3)n2)c(C)c1", "29% [at 0.68 µM] (inactive)"],
  ["COc1ccc(C(=O)Nc2ccc(-c3nc(-c4cc(C)ccc4C)co3)cc2)cc1", "9.17% (inactive)"],
  ["Cc1nc(OCC(=O)Nc2ccc(Cl)c(C(F)(F)F)c2)c2ccccc2n1", "27.7% [at 0.35 µM] (inactive)"]
]}

Please supply max activity for each of the following items, keeping them in order.
1. O=C1CCc2cc(NC(=O)c3ccc(C(F)(F)F)cc3)ccc2N1
2. O=C1CCc2cc(NC(=O)c3ccc(OC(F)(F)F)cc3)ccc2N1

1: -7.37% [at 1.35 µM] (inactive); 2: -8.43% [at 0.35 µM] (inactive)

Please supply max activity for each of the following items, keeping them in order.
1. Cc1cccc(CN2CCC3(CC2)N=C(c2cccc(F)c2)C(=O)N3)c1
2. COc1ccc(CN2CCC3(CC(n4cnnc4)CO3)C2)cc1 (stereo not given)

1. -7.22% (inactive)
2. 33.5% (inactive)

In one line, give reported max activity of the entry `O=C1CCc2cc(NC(=O)C(F)(F)F)ccc2N1` .
-12.7% [at 2.6 µM] (inactive)

====

Assay: inhibitors of Toxoplasma growth in IFN-γ-primed HeLa – cell-based, ME49Luc, luciferase, 72 h, dose response (AID 1259418)
Settings: T. gondii ME49Luc in IFN-y HeLa, active compounds read low, -100% = high-dose IFN-γ control wells; at 19.5 µM unless noted
The campaign covered roughly 3,400 compounds. About 840 (25%) were called active. About 11% were inconclusive and are not listed. These entries were drawn from the full list. Entries with a potency or affinity are not part of this list.
Could you please report measured max activity for the items listed next?

{"columns": ["Molecule", "max activity"],
 "data": [
  ["Cc1cccc(-c2nc(Cn3nnc(-c4nc(-c5ccc(Cl)cc5)no4)c3C)c(C)o2)c1", "25.6% (inactive)"]
]}

Please supply max activity for each of the following items, keeping them in order.
1. CCOC(=O)C1CCN(C(=O)c2ccc(-c3csc(CC)n3)cc2)CC1
2. Clc1ccc(-c2nc(N3CCN(C4CCCCC4)CC3)c3ccccc3n2)cc1
3. CCN1CC(C(=O)O)CN2CCN(C(=O)c3ccncc3F)CC2C1 (stereo not given)

1. 201% [at 10 µM] (inactive)
2. 19% [at 0.16 µM] (inactive)
3. 5.55% (inactive)

====

Assay: inhibitors of Toxoplasma growth in IFN-γ-primed HeLa – cell-based, ME49Luc, luciferase, 72 h, dose response (AID 1259418)
Details: T. gondii ME49Luc in IFN-y HeLa, active compounds read low, -100% = high-dose IFN-γ control wells; at 19.5 µM unless noted
The whole screen tested about 3,400 compounds, of which about 840 (25%) were called active. About 11% were inconclusive and are not listed. Only a sample is shown. Measured potencies and affinities stand elsewhere.
Could you please report measured max activity for the items listed next?

Here is how some molecules turned out for max activity.
{"columns": ["Molecule", "Observed Result"],
 "data": [
  ["Cc1nc(CCNC(=O)C2CCN(C(=O)c3ccc(Cl)cc3)CC2)cs1", "-28.7% (inactive)"],
  ["CCN(C)C(=O)c1cnc(-c2noc3cc(N4CCCCC4)ccc23)s1", "35.7% [at 10 µM] (inactive)"],
  ["CN(Cc1ccccn1)C(=O)C1=NOC2(CCN(S(=O)(=O)c3cccc(F)c3)C2)C1 (stereo not given)", "23.5% [at 10 µM] (inactive)"],
  ["Cc1ccc(S(=O)(=O)Nc2ccc3c(c2)C(=O)N([C@H](C)CO)C[C@H](C)[C@H](CN(C)Cc2ccc(C(F)(F)F)cc2)O3)cc1", "19.4% [at 10 µM] (inactive)"]
]}

Shift focus to the following entry.
In one line, give reported max activity of the entry `COc1cccc(C(=O)N2CCC(C(=O)NCCc3csc(C)n3)CC2)c1` .
-13.8% [at 0.16 µM] (inactive)

====

Experiment: inhibitors of Toxoplasma growth in IFN-γ-primed HeLa – cell-based, ME49Luc, luciferase, 72 h, dose response (AID 1259418)
Settings: T. gondii ME49Luc in IFN-y HeLa, active compounds read low, -100% = high-dose IFN-γ control wells; at 19.5 µM unless noted
The whole screen tested about 3,400 compounds, of which about 840 (25%) were called active. Another 11% or so got no clear call; they are omitted. Not all results are given here. Entries with a potency or affinity are not part of this list.
Measure Name: max activity

{"columns": ["Compound", "max activity"],
 "data": [
  ["CC(C)C#Cc1ccc([C@H]2[C@@H](CO)N3C(=O)CN(S(=O)(=O)c4ccccc4)C[C@@H]23)cc1", "19.2% [at 10 µM] (inactive)"]
]}

Please supply max activity for each of the following items, keeping them in order.
1. COc1ccc(CNC(=O)CCC2N=C3c4ccccc4N=C(SCc4ccccc4F)N3C2=O)cc1 (centres undefined)
2. O=C(CCC1N=C2c3ccccc3N=C(SCc3ccccc3F)N2C1=O)NCc1ccc(F)cc1 (centres undefined)
3. CCc1ccccc1Nc1ncnc2c1cnn2-c1ccc(C)cc1C
4. Cc1ccc(Cn2c(=O)c3nn(C)cc3n3c(=O)n(Cc4nc(-c5cccc(C)c5)oc4C)nc23)cc1
5. CN(C)CCOCC12CCCOC1CCN(C(=O)c1cccn1C)C2 (centres undefined)
6. COc1ccccc1-c1nc(Cn2nnc(-c3nc(-c4ccc(SC)cc4)no3)c2C)c(C)o1

1: -23.7% [at 0.35 µM] (inactive); 2: 12.5% [at 1.35 µM] (inactive); 3: 12.3% [at 0.68 µM] (inactive); 4: 8.72% [at 10 µM] (inactive); 5: 9.21% (inactive); 6: 10.9% [at 0.16 µM] (inactive)

Please supply max activity for each of the following items, keeping them in order.
1. O=C(CCC1N=C2c3ccccc3N=C(SCc3ccccc3F)N2C1=O)NCCc1ccccc1 (centres undefined)
2. O=S(=O)(c1ccccc1F)N1CCC(c2nc3ccc(-c4ccncc4)cn3n2)CC1

1: 25.3% [at 0.16 µM] (inactive); 2: -8.38% [at 0.16 µM] (inactive)

====

Experiment: inhibitors of Toxoplasma growth in IFN-γ-primed HeLa – cell-based, ME49Luc, luciferase, 72 h, dose response (AID 1259418)
Settings: T. gondii ME49Luc in IFN-y HeLa, active compounds read low, -100% = high-dose IFN-γ control wells; at 19.5 µM unless noted
About 840 (25%) of roughly 3,400 compounds were called active. Inconclusive results (about 11%) are left out. The list is a sample of the results. Potency and affinity values are given separately.
Could you please report measured max activity for the items listed next?

Here is how some molecules turned out for max activity.
{"columns": ["Molecule", "max activity"],
 "data": [
  ["CN1C(=O)CCc2cc(NC(=O)C3CC3)ccc21", "-5.59% [at 0.16 µM] (inactive)"],
  ["COc1ccc(-c2nc(C)c(-c3ccc(SCc4ccc(C(F)(F)F)cc4)nn3)s2)cc1", "8.72% [at 2.6 µM] (inactive)"],
  ["CN1C(=O)CCc2cc(NC(=O)c3cccc(C(F)(F)F)c3)ccc21", "6.55% [at 0.68 µM] (inactive)"],
  ["O=C(CCC1N=C2c3ccccc3N=C(SCc3cc(=O)n4cc(Cl)ccc4n3)N2C1=O)NCc1ccc2c(c1)OCO2 (stereo unspecified)", "-18.4% [at 10 µM] (inactive)"]
]}

Please supply max activity for each of the following items, keeping them in order.
1. Cc1ccc(N2CCC[C@]3(C(=O)O)CN(CCN(C)C)C[C@H]3C2)nn1
2. CCCC(=O)Nc1ccc(-c2nc(-c3ccccc3)co2)cc1
3. Cc1oc(-c2ccccc2)nc1Cn1nnc(-c2nc(-c3ccc(F)c(Cl)c3)no2)c1C
4. Cc1ccc(-c2coc(-c3ccc(NC(=O)Nc4ccc(Cl)cc4)cc3)n2)cc1
5. Cn1cnc2c1C(C(=O)O)CN(C(=O)c1ccsc1)C2 (stereo unspecified)
6. Cc1cc(C)cc(NC(=O)Nc2ccc(-c3nc(-c4ccccc4)co3)cc2)c1

["40.3% (inactive)", "72.8% [at 10 µM] (inactive)", "-12.6% [at 1.35 µM] (inactive)", "13.9% [at 0.16 µM] (inactive)", "44.9% (inactive)", "19.9% [at 1.35 µM] (inactive)"]

Please supply max activity for each of the following items, keeping them in order.
1. Clc1ccc(-n2ncc3c(NC4CCCCCCCCCCC4)ncnc32)cc1
2. CN1C(=O)CCc2cc(NC(=O)Cc3c(F)cccc3Cl)ccc21
3. Cc1ccc2c(c1C)-n1cccc1C1(CCN(C(=O)c3ccco3)CC1)N2

1. -21.9% [at 10 µM] (inactive)
2. -7.19% [at 5 µM] (inactive)
3. 10.9% [at 0.16 µM] (inactive)

Please supply max activity for each of the following items, keeping them in order.
1. Cc1ccc(-c2coc(-c3ccc(NC(=O)C4CCCCC4)cc3)n2)cc1
2. O=C(C[C@@H]1CC[C@@H]2[C@H](COC[C@@H](O)CN2C(=O)Nc2cc(Cl)cc(Cl)c2)O1)N1CCOCC1
3. O=C(Cc1ccc(F)cc1)N1CCC2(CC1)Nc1ccc(Cl)cc1-n1cccc12
4. CCN1C(=O)CCc2cc(NC(=O)Cc3ccc(OC)cc3)ccc21

["55.5% (inactive)", "20.4% (inactive)", "-6.77% [at 5 µM] (inactive)", "7.03% [at 2.6 µM] (inactive)"]

Please supply max activity for each of the following items, keeping them in order.
1. COCC#Cc1ccc([C@H]2[C@H](CO)N3CCCCN(C(=O)NC4CCCC4)C[C@@H]23)cc1
2. Cc1cccc(-c2noc(-c3nnn(Cc4nc(-c5cccc(C)c5)oc4C)c3C)n2)c1
3. Cc1ccc(C(=O)Nc2c(C(=O)N3CCN(c4ccccn4)CC3)[nH]c3ccc(C)cc23)cc1
4. COc1cccc(CCC(=O)Nc2ccc3c(c2)CCC(=O)N3C)c1

1. 30.1% (inactive)
2. 17.9% (inactive)
3. 31.1% [at 0.68 µM] (inactive)
4. 3.19% (inactive)
